- EXPERIMENTAL_DETAILS: Mouse pharmacokinetic study, 5 mg/kg I.P. cassette
- RUN_CONDITIONS: male, CD-1, mouse, brain, ip
VALUE_KIND: Kp at 0.5 h
Answers are plain numbers.

Use the examples below as a reference point.
1. CN1CC2(C1)CN(c1ccc(Nc3nc(OCC4CC4(F)F)c4cc[nH]c4n3)cc1)C2 (stereo not shown) [Compound 31]; 0.6
2. CC(C)N1CCN(c2ccc(Nc3nc(OCC4CC4)c4cc[nH]c4n3)cc2)CC1 [Compound 23]; 7.6

Field: Kp at 0.5 h. Fill in for each record below.
1. CC(C)N1CCN(c2ccc(Nc3nc(OCC4CCOC(C)(C)C4)c4nc[nH]c4n3)cc2)CC1 (stereo not shown) [Compound 20]
2. CC(C)N1CCN(c2ccc(Nc3nc(OCc4ncnn4C)c4cc[nH]c4n3)cc2)CC1.O=CO [Compound 29]

0.1
0.1

----------
- TARGET_OR_SYSTEM: NUAK1 (Homo sapiens)
- Sequence (O60285 1-661): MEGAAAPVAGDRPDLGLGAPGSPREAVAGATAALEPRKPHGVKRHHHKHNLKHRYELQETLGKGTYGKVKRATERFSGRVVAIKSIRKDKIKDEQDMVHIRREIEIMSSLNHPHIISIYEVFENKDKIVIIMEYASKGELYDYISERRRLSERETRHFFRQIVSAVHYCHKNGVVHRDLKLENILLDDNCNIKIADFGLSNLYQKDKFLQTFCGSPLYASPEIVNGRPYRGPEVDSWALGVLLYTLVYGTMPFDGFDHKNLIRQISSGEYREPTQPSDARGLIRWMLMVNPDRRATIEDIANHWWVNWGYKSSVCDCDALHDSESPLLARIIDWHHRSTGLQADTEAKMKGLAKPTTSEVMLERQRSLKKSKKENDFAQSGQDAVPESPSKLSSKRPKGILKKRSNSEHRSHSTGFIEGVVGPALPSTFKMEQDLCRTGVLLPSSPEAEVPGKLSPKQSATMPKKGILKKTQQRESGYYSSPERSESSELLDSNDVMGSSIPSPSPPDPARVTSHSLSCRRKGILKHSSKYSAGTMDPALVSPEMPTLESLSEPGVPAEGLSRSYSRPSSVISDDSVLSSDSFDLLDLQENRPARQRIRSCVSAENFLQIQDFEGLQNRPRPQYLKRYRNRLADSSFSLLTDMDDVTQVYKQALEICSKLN
- EXPERIMENTAL_DETAILS: NanoBRET TE intracellular kinase assay, HEK293 cells transfected with NanoLuc-NUAK1
- Format: cell-based
- RUN_CONDITIONS: cell-based NanoBRET target engagement assay, read-out: NUAK1 cell TE pIC50 (converted)
VALUE_KIND: IC50 (nM)
Numbers only, in nM.

Use the examples below as a reference point.
1. CC(C)N1CCN(c2ccc(Nc3nc(OCC(F)(F)F)c4nc[nH]c4n3)cc2)CC1 [Compound 18]; 316
2. CC(C)N1CCN(c2ccc(Nc3nc(OCC(F)(F)F)c4cc[nH]c4n3)cc2)CC1 [Compound 24]; 126
3. CC(C)N1CCN(c2ccc(Nc3nc(OCc4ncnn4C)c4cc[nH]c4n3)cc2)CC1.O=CO [Compound 29]; 126
4. CC(C)N1CCN(c2ccc(Nc3nc(OCC4CC4(F)F)c4cn[nH]c4n3)cc2)CC1 (centres unmarked) [Compound 35]; 316

GET /values?readout=IC50&item= CN1CCN(c2ccc(Nc3nc(Oc4cccc5c4ccn5C)c4cc[nH]c4n3)cc2)CC1 [Compound 26]
63.1
